I'd appreciate it if you could supply TGI values for the items below.
System: A549 NSCLC
protocol description: NCI tumour cell line growth inhibition, 48 h

Query: Let me know recorded TGI for COc1ccccc1N1C(=O)/C(=C\c2ccccc2)SC1c1cc(OC)c(OC)c(OC)c1 (stereo not given) , thanks.
Response: > 100 µM

Query: Let me know recorded TGI for CC(=O)NC1C(OCc2ccccc2)OC(COC(=O)CCCCCCCCCCNC(=O)CCNc2ccc([N+](=O)[O-])c3[nH]c4ccc(O)cc4c(=O)c23)C(O)C1OC(C)C(=O)N[C@H](C(=O)N[C@H](CCC(=O)O)C(N)=O)C(C)C (stereo not given in full) , thanks.
Response: > 100 µM

Query: Let me know recorded TGI for O=c1c2ccc(Br)cc2nc(-c2ccccc2)n1NC1OC(CO)C(O)C(O)C1O (stereo not given) , thanks.
Response: > 100 µM

Query: Let me know recorded TGI for COc1ccc(/C=N/C2=C(C#N)C(c3ccccc3)c3ccc4ccccc4c3O2)cc1 (stereo not given) , thanks.
Response: > 100 µM

Query: Let me know recorded TGI for COc1ccc(-c2nn(C(=O)c3cc(OC)c(OC)c(OC)c3)c3cc(N)ccc23)cc1 , thanks.
Response: 3.96 µM

###

System: UACC-257 melanoma
protocol description: NCI tumour cell line growth inhibition, 48 h
I'd appreciate it if you could supply TGI values for the items below.
# unit: µM | format: bare number

Query: Let me know recorded TGI for COc1cc(C2C(Cl)C(=O)N2NC(=O)c2ccccc2O)cc(OC)c1OC (stereo not given) , thanks.
Response: 7.46

Query: Let me know recorded TGI for O=c1cc(/C=C/c2ccccc2)c2ccc(O/C(=C\c3ccccc3)c3nc4ccccc4c(=O)o3)cc2o1 , thanks.
Response: 98.4

Query: Let me know recorded TGI for C/C(=N\Nc1nc2ccccc2[nH]1)c1ccc2ccccc2n1 , thanks.
Response: 24.9

###

Test system: SN12C renal
protocol description: NCI tumour cell line growth inhibition, 48 h; in the data active means GI50 below about 0.43 µM; inactive means the rest
Field 'call' accepts true for active, false for inactive

Query: Which outcome was entered for the compound O=C1/C=C/[C@@H](O)[C@@H]2C[C@@H](O)C[C@H]2/C=C/CCCCO1 in this test?
Response: false

Query: Which outcome was entered for the compound Nc1c(S(=O)(=O)O)cc2c(c1Cl)C(=O)c1ccccc1C2=O in this test?
Response: false

Query: Which outcome was entered for the compound COc1ccc(/C=N/C2=C(C#N)C(c3ccccc3)c3ccc4ccccc4c3O2)cc1 (centres undefined) in this test?
Response: false

Query: Which outcome was entered for the compound N=C(N)c1ccc(-c2ccc(-c3ccccc3)o2)o1 in this test?
Response: false

Query: Which outcome was entered for the compound Nc1ncnc2c1c(-c1ccc(Oc3ccccc3)cc1)nn2C[C@H]1SSC[C@H]1O in this test?
Response: false

Query: Which outcome was entered for the compound C=CCOc1ccc2c(c1)CC[C@@H]1[C@@H]2CC[C@]2(C)C(=O)/C(=N/O)C[C@@H]12 in this test?
Response: false

Query: Which outcome was entered for the compound CCc1cc(Cc2cc(CC)cc(C(C)(C)C)c2O)c(O)c(C(C)(C)C)c1 in this test?
Response: false

Query: Which outcome was entered for the compound O=[N+]([O-])c1ccc(N/N=C\c2ccc(O)cc2O)nc1 in this test?
Response: false

Query: Which outcome was entered for the compound COc1ccc2c(C(=O)NCCCCCC(=O)O)cc3cc4c(cc3c2c1)OCO4 in this test?
Response: false

Query: Which outcome was entered for the compound NC(CSC(c1ccccc1)(c1ccccc1)c1ccc(Br)cc1)C(=O)O (centres undefined) in this test?
Response: true

Query: Which outcome was entered for the compound Nc1nc(-c2ccccc2Cl)cc(-c2ccc(Cl)cc2Cl)n1 in this test?
Response: false

Query: Which outcome was entered for the compound COc1cccc(-c2nn(C)c3sc(C(=O)NCCN4CCN(c5ccccc5F)CC4)cc23)c1 in this test?
Response: false

Query: Which outcome was entered for the compound O=c1c(Br)ccc(Br)cc1Br in this test?
Response: false

Query: Which outcome was entered for the compound CCCCCCOc1ccc(/C=N/Nc2cc(C)nc3ccc(Br)cc23)cc1 in this test?
Response: false
